# Tested on: MOLT-4
# METHOD SUMMARY: NCI tumour cell line growth inhibition, 48 h
Activity calls are given as the source filed them. Cut-off read from the data, not from the text of the source: active = GI50 up to about 1.1 µM and inactive = higher.
GI50 by entry:

Below, each entry is followed by its recorded GI50 result.
[
  {
    "MOLECULE": "CCOC(=O)C(=O)Nc1cccc(C)c1C",
    "READOUT LABEL": "GI50",
    "RESULT VALUE": "> 100 µM (inactive)"
  },
  {
    "MOLECULE": "COC(=O)Nc1nc2cc(NS(=O)(=O)c3ccc(Cl)cc3)ccc2[nH]1",
    "READOUT LABEL": "GI50",
    "RESULT VALUE": "4.53 µM (inactive)"
  },
  {
    "MOLECULE": "Nn1c(=O)[nH]c2ncn(Cc3ccccc3)c2c1=O",
    "READOUT LABEL": "GI50",
    "RESULT VALUE": "> 100 µM (inactive)"
  },
  {
    "MOLECULE": "CC(C)(O)C1CC[C@]2(C)[C@H]3CC[C@@H]4[C@@]5(C)CCCC(C)(C)[C@@H]5CC[C@@]4(C)[C@]3(C)CC[C@@H]12 (stereo not given in full)",
    "READOUT LABEL": "GI50",
    "RESULT VALUE": "> 100 µM (inactive)"
  }
]

Task: Report GI50, nothing else, for this molecule: COc1cccc(NC(=O)CSc2nnc(-c3ccc(/N=C\c4ccc(Cl)cc4)cc3)o2)c1
Output: 23.4 µM (inactive)
